- TARGET OR SYSTEM: human CDK4/cyclin D3 (Homo sapiens, UniProt P11802)
- Construct: made in house; host or cells: insect cells co-infected with baculovirus vectors
- Sequence (P11802 whole entry): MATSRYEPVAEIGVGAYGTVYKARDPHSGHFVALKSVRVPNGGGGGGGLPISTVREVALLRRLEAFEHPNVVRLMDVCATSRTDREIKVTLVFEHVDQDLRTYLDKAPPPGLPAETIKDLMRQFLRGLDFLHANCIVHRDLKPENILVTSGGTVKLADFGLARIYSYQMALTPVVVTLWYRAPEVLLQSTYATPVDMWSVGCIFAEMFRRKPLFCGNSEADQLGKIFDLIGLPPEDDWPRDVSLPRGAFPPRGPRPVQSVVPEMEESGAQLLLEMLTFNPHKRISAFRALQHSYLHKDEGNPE
- Sequence (P30281 1-264 partner limits assumed): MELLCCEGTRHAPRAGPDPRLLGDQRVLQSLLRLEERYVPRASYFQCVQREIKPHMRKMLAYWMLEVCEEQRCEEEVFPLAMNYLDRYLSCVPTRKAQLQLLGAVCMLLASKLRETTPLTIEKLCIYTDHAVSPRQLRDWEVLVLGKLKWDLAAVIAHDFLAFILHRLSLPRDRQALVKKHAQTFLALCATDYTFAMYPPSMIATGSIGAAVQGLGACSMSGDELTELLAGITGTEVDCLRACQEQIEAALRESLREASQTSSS
- ASSAY SUMMARY: Inhibition of CDK4/cyclin D retinoblastoma kinase activity (Ki; % inhibition)
- Format: biochemical
- STATED CONDITIONS: 0.03 μM compound
OBSERVED PROPERTY: CDK4 % Inhibition at 0.03 μM (%)

# COMPOUND, TARGET OR SYSTEM, OUTPUT UNIT, ASSAY RESULT
measured = [
    ("Nc1nc(Nc2ccc(C(=O)NCc3cccc(C(F)(F)F)c3)cc2)sc1C(=O)c1c(F)cccc1F [Example G293]", "human CDK4/cyclin D3 (Homo sapiens, UniProt P11802)", "%", 32),
    ("Nc1nc(Nc2ccc(C(=O)NCCc3ccc(F)cc3)cc2)sc1C(=O)c1c(F)cccc1F [Example G355]", "human CDK4/cyclin D3 (Homo sapiens, UniProt P11802)", "%", 13),
    ("Nc1nc(Nc2ccc(C(=O)NCc3cccc(F)c3)cc2)sc1C(=O)c1c(F)cccc1F [Example G252]", "human CDK4/cyclin D3 (Homo sapiens, UniProt P11802)", "%", 31),
    ("C#CCN(C)C(=O)c1ccc(Nc2nc(N)c(C(=O)c3c(F)cccc3F)s2)cc1 [Example G282]", "human CDK4/cyclin D3 (Homo sapiens, UniProt P11802)", "%", 6),
    ("NC(=O)C(CO)NC(=O)c1ccc(Nc2nc(N)c(C(=O)c3c(F)cccc3F)s2)cc1 (stereo not shown) [Example G198]", "human CDK4/cyclin D3 (Homo sapiens, UniProt P11802)", "%", 42),
    ("COc1ccc(NC(=O)c2ccc(Nc3nc(N)c(C(=O)c4c(F)cccc4F)s3)cc2)cn1 [Example G215]", "human CDK4/cyclin D3 (Homo sapiens, UniProt P11802)", "%", 27),
    ("Nc1nc(Nc2ccc(C(=O)NCc3ccc(F)cc3Cl)cc2)sc1C(=O)c1c(F)cccc1F [Example G278]", "human CDK4/cyclin D3 (Homo sapiens, UniProt P11802)", "%", 27),
    ("Nc1nc(Nc2ccc(C(=O)Nc3ccccc3CCO)cc2)sc1C(=O)c1c(F)cccc1F [Example G207]", "human CDK4/cyclin D3 (Homo sapiens, UniProt P11802)", "%", 15),
    ("CCN(CC)CCCN(C)C(=O)c1ccc(Nc2nc(N)c(C(=O)c3c(F)cccc3F)s2)cc1 [Example G260]", "human CDK4/cyclin D3 (Homo sapiens, UniProt P11802)", "%", 1),
    ("Nc1nc(Nc2ccc(C(=O)NCCNc3ccc([N+](=O)[O-])cn3)cc2)sc1C(=O)c1c(F)cccc1F [Example G242]", "human CDK4/cyclin D3 (Homo sapiens, UniProt P11802)", "%", 49),
    ("CCCN(CCC)C(=O)c1ccc(Nc2nc(N)c(C(=O)c3c(F)cccc3F)s2)cc1 [Example G248]", "human CDK4/cyclin D3 (Homo sapiens, UniProt P11802)", "%", 17),
    ("CCSCCNC(=O)c1ccc(Nc2nc(N)c(C(=O)c3c(F)cccc3F)s2)cc1 [Example G283]", "human CDK4/cyclin D3 (Homo sapiens, UniProt P11802)", "%", 10),
    ("COc1ccc(OC)c(CCNC(=O)c2ccc(Nc3nc(N)c(C(=O)c4c(F)cccc4F)s3)cc2)c1 [Example G319]", "human CDK4/cyclin D3 (Homo sapiens, UniProt P11802)", "%", 14),
    ("CCN(CC)C(=O)C1CCCN(C(=O)c2ccc(Nc3nc(N)c(C(=O)c4c(F)cccc4F)s3)cc2)C1 (stereo not shown) [Example G224]", "human CDK4/cyclin D3 (Homo sapiens, UniProt P11802)", "%", 28),
    ("CC(C)(C)c1ccc(CNC(=O)c2ccc(Nc3nc(N)c(C(=O)c4c(F)cccc4F)s3)cc2)cc1 [Example G270]", "human CDK4/cyclin D3 (Homo sapiens, UniProt P11802)", "%", 17),
    ("N#CCc1ccc(NC(=O)c2ccc(Nc3nc(N)c(C(=O)c4c(F)cccc4F)s3)cc2)cc1 [Example G321]", "human CDK4/cyclin D3 (Homo sapiens, UniProt P11802)", "%", 19),
]
